Recorded measurements of composite z-score, one per entry
biological target: Pro-neuregulin-1, membrane-bound isoform (Homo sapiens); test: NRG1 binders on small-molecule microarrays, primary screen, psychiatric disease protein project, biochemical, small-molecule microarray, fluorescence 635/667 (AID 1075); conditions: NRG1 binding, 635 nm fluorescence, higher = more signal;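 note: score combines 667 nm spot fluorescence with signal to noise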
// no unit, no text: just the number

Consider the worked cases shown below.
MOLECULE | composite z-score
CC(=O)NCCCC[C@@H]1NC(=O)[C@@H]2C[C@H](C(=O)O)[C@H](c3ccc(O)cc3)N2C1=O | 0.78
CN(C)CCCNC(=O)[C@@]1(C)c2ccccc2C(=O)N(Cc2cc(C(F)(F)F)cc(C(F)(F)F)c2)[C@H]1c1ccc(CO)cc1 | -0.012
C=C(C(=O)CC[C@H](OC(=O)c1cccnc1)c1cccc(OCCO)c1)C(C)C | -0.593

GET /value?item= `C[C@]1(C(=O)O)c2ccccc2C(=O)N(Cc2ccccc2)[C@H]1c1ccc(CO)cc1` &field=composite z-score returns 0.869

GET /value?item= `C=CCN1C(=O)[C@@]2(CCC(=O)OC(C)(C)C)N=C(c3ccc(OCCCO)cc3)O[C@H]2c2ccccc21` &field=composite z-score returns 0.82

GET /value?item= `COCCOC(=O)N1C(=O)[C@@]2(c3cc(C#CC4=CCCCC4)ccc31)[C@H](C(=O)N1CCN(c3ncccn3)CC1)[C@H]1C(=O)O[C@H](c3ccccc3)[C@H](c3ccccc3)N1[C@@H]2c1ccc(O)cc1` &field=composite z-score returns 0.79

GET /value?item= CC=CC(O)C1C=CC2C(=O)N(C)C(=O)C2N1N1CCCCC1 (stereo not given) &field=composite z-score returns 1.85

GET /value?item= `COc1c(C)cc(-c2cc3c(c(Cc4ccccc4)n2)[Si](C(C)C)(C(C)C)OC3)cc1C` &field=composite z-score returns -0.0762

GET /value?item= `COc1ccc([Si](C)(C)[C@H]2[C@H](CCn3cc([C@H](O)c4ccccc4)nn3)O[C@@]3(C(=O)N(Cc4ccc(N5CCOC5=O)cc4)c4ccccc43)[C@@H]2C)cc1` &field=composite z-score returns 0.276

GET /value?item= `CC(C)CN1C(=O)[C@@]2(Cc3ccccc31)c1ccccc1C(=O)N(Cc1ccccc1C(F)(F)F)[C@H]2c1ccc(CO)cc1` &field=composite z-score returns -0.84

GET /value?item= `O=C1O[C@@H](c2ccccc2)[C@@H](c2ccccc2)N2[C@@H](c3ccccc3OCCO)[C@]3(C(=O)Nc4ccccc43)[C@@H](C(=O)NC[C@H](O)c3ccccc3)[C@H]12` &field=composite z-score returns 0.551

GET /value?item= `CN(C)CCCCNC(=O)[C@H]1C[C@H]2C(=O)N3CCC[C@H]3C(=O)N2[C@H]1c1ccc(O)cc1` &field=composite z-score returns -1.06

GET /value?item= C=CCC(OC(C)=O)[C@@H]1[C@@H](N(Cc2cc3ccccc3o2)C(=O)Cc2ccc(F)cc2)c2cc(OCCCO)ccc2N1C(=O)c1ccc2ccccc2n1 (stereo not given in full) &field=composite z-score returns -0.137

GET /value?item= `[N-]=[N+]=NCc1ccccc1C[C@@]1(C(N)=O)N=C(c2ccc(OCCCO)cc2)O[C@@H]1c1ccccc1CN=[N+]=[N-]` &field=composite z-score returns 1.01

GET /value?item= `O=C1C[C@@](C(=O)NCC(F)(F)F)(c2ccc([N+](=O)[O-])cc2)[C@@H](c2ccc(CO)cc2)N1C1CCCCC1` &field=composite z-score returns 1.24

GET /value?item= `C=CC[C@@]12N=C(c3ccc(OCCCO)cc3)O[C@@H]1c1ccccc1N(CCS(=O)(=O)c1ccccc1)C2=O` &field=composite z-score returns 1.22

GET /value?item= `CCOC(=O)C1=CC[C@@H](c2ccccc2)N(S(=O)(=O)c2ccc(C)cc2)C1` &field=composite z-score returns -0.273

GET /value?item= `C=CCN1C(=O)[C@@]2(O[C@@H](CCO)[C@H]([Si](C)(C)c3ccc(OC)cc3)[C@H]2C)c2cc(N3C(=O)c4ccccc4Oc4ccccc43)ccc21` &field=composite z-score returns 0.402

GET /value?item= `O=c1cccc(-c2ccc(C(F)(F)F)cc2)o1` &field=composite z-score returns -0.289

GET /value?item= `COC(=O)[C@@]1(Cc2ccc(OC)cc2)[C@H]2c3cc(C(=O)N4CCCC4)n(CCc4cc5ccccc5[nH]4)c3C[C@H]2CN1C(=O)c1ccccc1` &field=composite z-score returns 1.9

GET /value?item= `CCOC(=O)C1=CC[C@@H](c2ccc([N+](=O)[O-])cc2)N(S(=O)(=O)c2ccc(C)cc2)[C@H]1c1ccccc1` &field=composite z-score returns 0.525

GET /value?item= CCOc1cc(C(O)C2C=CC3C(=O)N(C4CCCCC4)C(=O)C3N2Nc2ccc(OC)cc2)ccc1O (stereo not given) &field=composite z-score returns 1.72

GET /value?item= `C=C(/C(=C/C[C@@H](OC(=O)c1ccncc1)c1ccc(OCCO)cc1)c1cc(C(=O)OC)ccc1OC)C(C)C` &field=composite z-score returns 0.679
